Hello, the source for this data is the supplement of paper PMC7877785, in case you need it.

assay.summary: self-splicing fitness, log relative to wild type (ln ratio); higher = more splicing; Tetrahymena group I intron in knt gene, E. coli kanamycin selection, DiMSum; sequences stand for … in CUCUCU…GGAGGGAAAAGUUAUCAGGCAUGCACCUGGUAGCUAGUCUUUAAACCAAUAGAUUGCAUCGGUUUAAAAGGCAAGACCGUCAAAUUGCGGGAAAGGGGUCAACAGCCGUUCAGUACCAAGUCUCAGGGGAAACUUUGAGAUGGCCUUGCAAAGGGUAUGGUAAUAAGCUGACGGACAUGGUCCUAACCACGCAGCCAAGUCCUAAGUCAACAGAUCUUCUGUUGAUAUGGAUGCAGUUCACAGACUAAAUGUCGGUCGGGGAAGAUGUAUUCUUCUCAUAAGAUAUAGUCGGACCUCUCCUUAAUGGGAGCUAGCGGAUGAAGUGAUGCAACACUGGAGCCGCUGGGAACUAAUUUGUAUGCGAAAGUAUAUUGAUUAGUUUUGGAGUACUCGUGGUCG;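 further: selection with 25 µg/mL kanamycin versus none on LB agar overnight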
settings: 30 °C
measure.name: self-splicing fitness (ln)
Answers are plain numbers.

Some sequences with known self-splicing fitness (ln) results, for comparison:
>  <sequence.chain>
CCCGAGCAAUAUUACGCCAC

>  <self-splicing fitness (ln)>
-3.54

$$$$
>  <sequence.chain>
CGUGAGCAAUAUUACGUUCG

>  <self-splicing fitness (ln)>
-2.61

$$$$
>  <sequence.chain>
AGACAGCAAUAUUACGCUCU

>  <self-splicing fitness (ln)>
-2.08

$$$$
>  <sequence.chain>
UGCAAGCAAUAUUACGGAUG

>  <self-splicing fitness (ln)>
-1.25

$$$$
>  <sequence.chain>
GUCCAGCAAUAUUACGUUCC

>  <self-splicing fitness (ln)>
-1.46

$$$$

For each of the items listed, what is its self-splicing fitness (ln)?
1. ACCUAGCAAUAUUACGCAGA
2. GAGGAGCAAUAUUACGGCGC
3. AUGCAGCAAUAUUACGGCCC
4. AGCGAGCAAUAUUACGUGAC

1. -2.23
2. -1.62
3. -0.0496
4. -3.4

For the 5 sequences below, give their self-splicing fitness (ln) values.
1. CUACAGCAAUAUUACGGCUC
2. CUAAAGCAAUAUUACGAUGC
3. GCUGAGCAAUAUUACGUUUC
4. ACACAGCAAUAUUACGAAGG
5. GCUUAGCAAUAUUACGUAUA

[-3.53, -3.96, -1.94, -1.75, -1.24]

Consider the following items and state reported self-splicing fitness (ln) for each.
1. CCAGAGCAAUAUUACGUCGA
2. CACAAGCAAUAUUACGGCGA

[-3.92, -1.3]
